# assay-system: S1P1 (Homo sapiens)
# Sequence (P21453 whole entry): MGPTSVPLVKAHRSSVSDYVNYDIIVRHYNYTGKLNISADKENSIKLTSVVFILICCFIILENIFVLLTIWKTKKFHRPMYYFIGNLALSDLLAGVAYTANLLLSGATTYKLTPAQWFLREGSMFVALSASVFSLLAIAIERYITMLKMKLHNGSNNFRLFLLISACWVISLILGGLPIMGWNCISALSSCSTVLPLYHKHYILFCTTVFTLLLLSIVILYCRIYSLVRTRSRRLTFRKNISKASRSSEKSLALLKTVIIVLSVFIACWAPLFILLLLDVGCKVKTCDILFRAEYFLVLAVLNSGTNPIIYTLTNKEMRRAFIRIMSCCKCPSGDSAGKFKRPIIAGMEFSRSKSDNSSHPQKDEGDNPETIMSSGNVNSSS
# assay-explanation: Method A: Receptor [35S] GTPγS Binding Assay, membranes from S1P1/CHO cells
# Assay type: biochemical
# Set-up: expressed in transfected cells; host or cells: S1P1/CHO cells
# condition-details: Method A; S1P1/CHO cell membranes
Where a name gives a salt, the structure may show the parent alone.
quantity-name: log10 of EC50 (log10 of the value in nM)

{"molecule": "O=C(O)C1CN(Cc2ccc(-c3noc(-c4onc(-c5ccccc5)c4C(F)(F)F)n3)cc2F)C1", "quantity-name": "log10 of EC50", "readout-number": -0.49}
{"molecule": "O=C(O)c1c(-c2ccccc2)noc1-c1nc(-c2ccc(CN3CC(C(=O)O)C3)cc2)no1", "quantity-name": "log10 of EC50", "readout-number": 2.05}
{"molecule": "O=C(O)C1CN(Cc2ccc(-c3noc(-c4onc(-c5ccccc5)c4C(F)(F)F)n3)c(C(F)(F)F)c2)C1", "quantity-name": "log10 of EC50", "readout-number": 0.81}
{"molecule": "O=C(O)C1CN(Cc2ccc(-c3noc(-c4noc(-c5ccccc5)c4-c4ccccc4)n3)cc2)C1", "quantity-name": "log10 of EC50", "readout-number": -0.14}
{"molecule": "O=C(NCC(F)(F)F)c1c(-c2ccccc2)noc1-c1nc(-c2ccc(CN3CC(C(=O)O)C3)cc2)no1", "quantity-name": "log10 of EC50", "readout-number": 1.46}
{"molecule": "COC(=O)c1c(-c2ccccc2)noc1-c1nc(-c2ccc(CN3CC(C(=O)O)C3)cc2)no1", "quantity-name": "log10 of EC50", "readout-number": 0.28}
{"molecule": "CCCc1c(-c2nc(-c3ccc(CN4CC(C(=O)O)C4)cc3)no2)noc1CC(C)C [Example 18, TFA]", "quantity-name": "log10 of EC50", "readout-number": 0.00}
